Test system: U-87 MG
Test: Antiproliferative activity against human U-87 MG cells assessed as inhibition of cell proliferation incubated for 96 hrs by MTT assay
Format: functional, cell-based, U-87MG ATCC
Readout Name: IC50 (µM)
Number only, in µM; omit the unit.

Param item: `COc1cccc2c1nc(C(F)F)n2-c1nc(N2CCOCC2)nc(N2CCN(C(=S)SCC(=O)N3CCOCC3)CC2)n1` ; param system: U-87 MG; output IC50: 0.6

Param item: `COc1cccc2c1nc(C(F)F)n2-c1nc(N2CCOCC2)cc(N2CCN(C(=S)SCC(=O)N3CCCC3)CC2)n1` ; param system: U-87 MG; output IC50: 1.99

Param item: `COc1cccc2c1nc(C(F)F)n2-c1nc(N2CCOCC2)cc(N2CCN(C(=S)SCC(=O)N3CCOCC3)CC2)n1` ; param system: U-87 MG; output IC50: 1.22

Param item: `COc1cccc2c1nc(C(F)F)n2-c1nc(N2CCOCC2)cc(N2CCN(C(=S)SCC(=O)N(C)C)CC2)n1` ; param system: U-87 MG; output IC50: 2.04
